Where do these numbers come from? They come from ChEMBL document CHEMBL5058577.

test system: U2OS; test: Multiplex assay against U2OS; type: toxicity, cell-based; conditions: human, 24 h, 1 µM, compound concentration 1 uM, replicate 2
Response key: true (1) means Population Apoptotic (%) >= 90%; false (0) means Population Apoptotic (%) < 90%.

[
  {
    "molecule": "Cl.N=C(N)NC(=O)Cc1c(Cl)cccc1Cl [GUANFACINE HYDROCHLORIDE]",
    "assigned.category": "false (0)"
  },
  {
    "molecule": "CC(C)COc1ccc(CNC(=O)N(Cc2ccc(F)cc2)C2CCN(C)CC2)cc1",
    "assigned.category": "false (0)"
  },
  {
    "molecule": "O=C(CCCc1ccccc1)Nc1nc2ccccc2c(=O)s1",
    "assigned.category": "false (0)"
  },
  {
    "molecule": "CC(C)(C)c1cc(NC(=O)Nc2ccc(-c3cn4c(n3)sc3cc(OCCN5CCOCC5)ccc34)cc2)no1",
    "assigned.category": "false (0)"
  },
  {
    "molecule": "CN[C@@H](C)C(=O)N[C@H](C(=O)N1CCC[C@H]1C(=O)Nc1snnc1-c1ccccc1)C1CCCCC1",
    "assigned.category": "false (0)"
  },
  {
    "molecule": "CC(/C=C1\\SC(=S)N(CCCC(=O)Nc2ccc(C(=O)O)c(O)c2)C1=O)=C\\c1ccccc1",
    "assigned.category": "true (1)"
  },
  {
    "molecule": "CCCCC1=NC2(CCCC2)C(=O)N1Cc1ccc(-c2ccccc2-c2nnn[nH]2)cc1",
    "assigned.category": "false (0)"
  },
  {
    "molecule": "Cl.NCCc1ccc(O)c(O)c1 [DOPAMINE HYDROCHLORIDE]",
    "assigned.category": "false (0)"
  }
]

Determine whether this molecule has Population Apoptotic (%) no lower than 90%: CCCCC(=O)N(Cc1ccc(-c2ccccc2-c2nnn[nH]2)cc1)[C@H](C(=O)O)C(C)C
false (0)

Determine whether this molecule has Population Apoptotic (%) no lower than 90%: COc1ccccc1N1CCN(C[C@@H](C(=O)NC(C)(C)C)c2ccccc2)CC1.Cl.Cl
false (0)

Determine whether this molecule has Population Apoptotic (%) no lower than 90%: COC[C@@H](c1ccc(C(F)(F)F)cc1)N1CCN(C2(C)CCN(C(=O)c3c(C)ncnc3C)CC2)C[C@@H]1C.O=C(O)/C=C\C(=O)O [VICRIVIROC MALEATE]
true (1)

----------
Give measured Population Fragmented Nuclei (%) for each item. Keep answers brief.
tested on: Fibroblast; experiment: Multiplex assay against human fibroblast; format: toxicity, cell-based; details: 24 h, 10 µM, compound concentration 10 uM, replicate 1
Numbers only, in %.

// below: answered molecules
[
  {
    "molecule": "Cc1cccc(NC(=O)CN2CCC(c3ccccn3)CC2)c1.Cl.Cl",
    "tgt": "Fibroblast",
    "Population Fragmented Nuclei (%)": 11
  },
  {
    "molecule": "CCCCC1=NC2(CCCC2)C(=O)N1Cc1ccc(-c2ccccc2-c2nnn[nH]2)cc1",
    "tgt": "Fibroblast",
    "Population Fragmented Nuclei (%)": 9
  },
  {
    "molecule": "Br.CS(=O)(=O)Nc1c(O)ccc2c1CCCC2C1=NCCN1 (stereo not given)",
    "tgt": "Fibroblast",
    "Population Fragmented Nuclei (%)": 16
  },
  {
    "molecule": "CCc1cc2cc(NS(=O)(=O)c3ccc(C#N)cc3)ccc2n(CC)c1=O",
    "tgt": "Fibroblast",
    "Population Fragmented Nuclei (%)": 19
  },
  {
    "molecule": "O=C(NCCN1CCC(n2c(=O)[nH]c3cc(Cl)ccc32)CC1)c1ccc(F)cc1 [HALOPEMIDE]",
    "tgt": "Fibroblast",
    "Population Fragmented Nuclei (%)": 23
  },
  {
    "molecule": "N#Cc1c(Oc2cccc(OS(=O)(=O)CCCC(F)(F)F)c2)cccc1C(F)(F)F",
    "tgt": "Fibroblast",
    "Population Fragmented Nuclei (%)": 13
  }
]

Hi team, please reply with Population Fragmented Nuclei (%) for each item in this list.
1. CC(C)COc1ccc(CNC(=O)N(Cc2ccc(F)cc2)C2CCN(C)CC2)cc1
2. Cl.N=C(N)NC(=O)Cc1c(Cl)cccc1Cl [GUANFACINE HYDROCHLORIDE]
3. Cc1sc2c(c1C)C(c1ccc(Cl)cc1)=N[C@@H](CC(=O)NCCCCCCCCNC(=O)COc1cccc3c1C(=O)N(C1CCC(=O)NC1=O)C3=O)c1nnc(C)n1-2 (stereo not given in full)

[13, 17, 20]

Hi team, please reply with Population Fragmented Nuclei (%) for each item in this list.
1. CCCCC(=O)N(Cc1ccc(-c2ccccc2-c2nnn[nH]2)cc1)[C@H](C(=O)O)C(C)C
2. NCCc1cn(S(=O)(=O)c2c(Cl)nc3sccn23)c2ccccc12.O=C(O)C(=O)O
3. CN[C@@H](C)C(=O)N[C@H](C(=O)N1CCC[C@H]1C(=O)Nc1snnc1-c1ccccc1)C1CCCCC1
4. CC(C)c1noc(N2CCC(COc3ccc(-c4ccc(S(C)(=O)=O)cc4)nc3)CC2)n1
5. COc1ccccc1N1CCN(C[C@@H](C(=O)NC(C)(C)C)c2ccccc2)CC1.Cl.Cl
6. N#Cc1cc(F)cc(-c2nc(-c3ccc(F)cn3)no2)c1

[18, 22, 14, 12, 19, 12]

----------
tested on: Fibroblast; test: Multiplex assay against human fibroblast; format: toxicity, cell-based; conditions: 24 h, 1 µM, compound concentration 1 uM, replicate 1
observable: Population Mitochondria Different-Phenotype (%)
Give bare numbers, in %.

// below: answered compounds
[
  {
    "compound": "C[C@H](N)COC(=O)[C@@H](CCCCN)NC(=O)Cc1c(-c2ccc3ccccc3c2)[nH]c2c1ccc1ccccc12",
    "reported.result": 5
  },
  {
    "compound": "CCCCCC(O)/C=C/[C@H]1C(=O)CC(O)C1C/C=C\\CCCC(=O)O (some centres undefined)",
    "reported.result": 2
  },
  {
    "compound": "N#Cc1c(Oc2cccc(OS(=O)(=O)CCCC(F)(F)F)c2)cccc1C(F)(F)F",
    "reported.result": 4
  },
  {
    "compound": "CC[C@@H](C)Nc1nc(C)nc2c(-c3ccc(OC)nc3C)c(C)nn12",
    "reported.result": 3
  },
  {
    "compound": "CCc1cc2cc(NS(=O)(=O)c3ccc(C#N)cc3)ccc2n(CC)c1=O",
    "reported.result": 4
  }
]

Hi team, please reply with Population Mitochondria Different-Phenotype (%) for each item in this list.
1. CCCCC(=O)N(Cc1ccc(-c2ccccc2-c2nnn[nH]2)cc1)[C@H](C(=O)O)C(C)C
2. Cc1onc(-c2ccccc2Cl)c1C(=O)N(C)c1ccc(Cl)cc1
3. CCCCC1=NC2(CCCC2)C(=O)N1Cc1ccc(-c2ccccc2-c2nnn[nH]2)cc1
4. CC(C)COc1ccc(CNC(=O)N(Cc2ccc(F)cc2)C2CCN(C)CC2)cc1

1: 2; 2: 1; 3: 3; 4: 5

----------
test system: HEK-293T; experiment: Multiplex assay against HEK293T; assay type: toxicity, cell-based; settings: human, 12 h, 10 µM, compound concentration 10 uM, replicate 1
Give measured Population Mitochondria Different-Phenotype (%) for each item. Keep answers brief.
One number for each entry, in %.

Hi team, please reply with Population Mitochondria Different-Phenotype (%) for each item in this list.
1. CCc1cc2cc(NS(=O)(=O)c3ccc(C#N)cc3)ccc2n(CC)c1=O
2. Cc1c(CC(=O)O)c2cccnc2n1Cc1ccc(S(C)(=O)=O)cc1C(F)(F)F
3. COC[C@@H](c1ccc(C(F)(F)F)cc1)N1CCN(C2(C)CCN(C(=O)c3c(C)ncnc3C)CC2)C[C@@H]1C.O=C(O)/C=C\C(=O)O [VICRIVIROC MALEATE]
4. O=C(NCCN1CCC(n2c(=O)[nH]c3cc(Cl)ccc32)CC1)c1ccc(F)cc1 [HALOPEMIDE]

47
46
63
76

----------
Give measured Population Mitochondria Different-Phenotype (%) for each item. Keep answers brief.
tested on: U2OS; test: Multiplex assay against U2OS; format: toxicity, cell-based; details: human, 24 h, 10 µM, compound concentration 10 uM, replicate 1
One number for each entry, in %.

// below: answered compounds
[
  {
    "compound": "COc1ccccc1N1CCN(C[C@@H](C(=O)NC(C)(C)C)c2ccccc2)CC1.Cl.Cl",
    "tgt": "U2OS",
    "output.unit": "%",
    "reported.result": 33
  },
  {
    "compound": "CC(=O)Nc1cccc2c1c(Sc1ccc(Cl)cc1)c(C)n2CC(=O)O",
    "tgt": "U2OS",
    "output.unit": "%",
    "reported.result": 2
  },
  {
    "compound": "CC[C@@H](C)Nc1nc(C)nc2c(-c3ccc(OC)nc3C)c(C)nn12",
    "tgt": "U2OS",
    "output.unit": "%",
    "reported.result": 3
  },
  {
    "compound": "Cc1c(CC(=O)O)c2cccnc2n1Cc1ccc(S(C)(=O)=O)cc1C(F)(F)F",
    "tgt": "U2OS",
    "output.unit": "%",
    "reported.result": 3
  }
]

Then there is this compound:
Please report the recorded Population Mitochondria Different-Phenotype (%) for Cc1cccc(NC(=O)CN2CCC(c3ccccn3)CC2)c1.Cl.Cl .
3
